- MEASURED_ON: human factor XIa (Homo sapiens, UniProt P03951)
- Sequence (P03951 19-387 limits assumed): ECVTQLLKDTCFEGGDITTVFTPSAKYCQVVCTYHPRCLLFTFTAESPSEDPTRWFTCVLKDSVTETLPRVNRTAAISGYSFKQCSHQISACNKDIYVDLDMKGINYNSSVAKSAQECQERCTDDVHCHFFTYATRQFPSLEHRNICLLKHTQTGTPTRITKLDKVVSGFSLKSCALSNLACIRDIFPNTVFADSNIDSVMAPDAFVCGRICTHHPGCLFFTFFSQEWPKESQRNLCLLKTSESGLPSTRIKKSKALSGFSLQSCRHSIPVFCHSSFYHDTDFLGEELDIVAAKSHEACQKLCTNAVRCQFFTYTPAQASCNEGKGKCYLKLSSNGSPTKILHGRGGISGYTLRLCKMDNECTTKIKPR
- Sequence (P03951 388-625 limits assumed): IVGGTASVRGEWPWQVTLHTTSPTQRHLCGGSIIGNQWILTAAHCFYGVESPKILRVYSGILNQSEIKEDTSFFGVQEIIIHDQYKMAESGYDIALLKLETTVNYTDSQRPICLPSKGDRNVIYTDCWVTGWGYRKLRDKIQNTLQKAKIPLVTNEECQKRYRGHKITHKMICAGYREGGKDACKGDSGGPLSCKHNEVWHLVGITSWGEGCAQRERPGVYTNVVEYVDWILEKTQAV
- TEST_SUMMARY: Dose-response inhibition of wild-type factor XIa, S-2366 hydrolysis assay
- CONDITION_PARAMETERS: logistic fit eq 1
OUTCOME_MEASURE: HS (Hill slope)

(A) CCOC(=O)c1c(COc2cc3c(C(=O)OCC)c(COc4cc5c(C(=O)O)c(C)oc5cc4OC)oc3cc2OC)oc2cc(OC)c(O)cc12
(B) CCOC(=O)c1c(C)oc2cc(OC)c(OCc3oc4cc(OC)c(OCc5oc6cc(OCC)c(OS(=O)(=O)[O-])cc6c5C(=O)OCC)cc4c3C(=O)OCC)cc12.[Na+]
(C) O=C(Nc1ccc(OS(=O)(=O)[O-])cc1)c1cccc(N2C(=O)c3ccc(C(=O)Nc4ccc(OS(=O)(=O)[O-])cc4)cc3C2=O)c1.[Na+].[Na+]
(Q) Kindly order the items shown according to HS (Hill slope), from the highest value down. Provide the labels, sequenced as the question asks.
(A) C, B, A
